Value source: ChEMBL document CHEMBL1151126

- assay remarks: Cytotoxicity against human Raji cells assessed as cell viability at 10 molar ratio
- Assay type: cell-based
- condition details: read-out: Activity
Consider the following compounds; for each one, report its viability at 10 molar ratio.
One number for each entry, in %.

Past entries and their recorded results:
[
  {
    "structure": "COc1ccc(-c2coc3cc(OC(C)=O)ccc3c2=O)cc1",
    "measured property": "viability at 10 molar ratio",
    "display unit": "%",
    "value reported": 100
  },
  {
    "structure": "COc1ccc(-c2coc3cc(O)ccc3c2=O)cc1",
    "measured property": "viability at 10 molar ratio",
    "display unit": "%",
    "value reported": 100
  },
  {
    "structure": "COc1ccc(-c2coc3cc(OC(C)=O)c(OC)cc3c2=O)cc1",
    "measured property": "viability at 10 molar ratio",
    "display unit": "%",
    "value reported": 100
  }
]

Here are 3 compounds. What values of viability at 10 molar ratio were reported for them?
1. COc1ccc(-c2coc3cc(O[C@@H]4O[C@H](CO)[C@@H](O)[C@H](O)[C@H]4O)ccc3c2=O)cc1
2. COc1ccc(-c2coc3cc(O[C@@H]4O[C@H](CO)[C@@H](O)[C@H](O)[C@H]4O)c(OC)cc3c2=O)cc1
3. COc1ccc(-c2coc3cc(O)c(OC)cc3c2=O)cc1

Solution:
1. 100
2. 100
3. 100
